Biological target: T1, human IL-36R (human, UniProt Q9HB29 20-575)
T1 sequence (looked up): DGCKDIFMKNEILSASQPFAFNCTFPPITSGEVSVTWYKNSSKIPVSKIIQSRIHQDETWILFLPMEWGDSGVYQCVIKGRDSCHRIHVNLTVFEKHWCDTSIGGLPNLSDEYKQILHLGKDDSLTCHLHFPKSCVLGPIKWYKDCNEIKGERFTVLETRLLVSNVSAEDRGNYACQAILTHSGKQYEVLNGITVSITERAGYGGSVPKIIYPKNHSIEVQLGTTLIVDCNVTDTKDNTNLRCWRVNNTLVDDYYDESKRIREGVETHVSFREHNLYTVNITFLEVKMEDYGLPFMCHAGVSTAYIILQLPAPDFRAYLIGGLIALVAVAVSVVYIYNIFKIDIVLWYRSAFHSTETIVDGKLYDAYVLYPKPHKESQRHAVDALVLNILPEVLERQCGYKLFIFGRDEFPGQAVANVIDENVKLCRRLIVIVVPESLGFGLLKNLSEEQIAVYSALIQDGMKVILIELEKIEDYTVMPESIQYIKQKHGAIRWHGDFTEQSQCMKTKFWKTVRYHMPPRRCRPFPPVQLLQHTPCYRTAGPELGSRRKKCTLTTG
Assay: cell-based or functional assay
Experimental Endpoint: IC50 of IL-6 release, NCI/ADR-RES cells stimulated with IL-36γ

Binder	Observed Result
humanized anti-IL-36R antibody 900513 (antibody, V domains shown, IgG1 (vector with L234A, L235A) and human kappa) VH: QVQLVQSGAEVKKPGASVKVSCKASGYTFTSSWMHWAKQAPGQGLEWIGEIHPNSAKTNYNQKFQGRVTMTRDTSISTAYMELSRLRSDDTAVYYCARVDYGKPWFAYWGQGTLVTVSS VL: EIVLTQSPGTLSLSPGERATLSCSASSSVSSSYLHWYQQKPGQAPRLWIYSTSNRATGIPDRFSGSGSGTDFTLTISRLEPEDFATYYCQQFQSSPLTFGQGTKLEIK	0.0121 µg/mL
humanized anti-IL-36R antibody 900527 (antibody, V domains shown, IgG1 (vector with L234A, L235A) and human kappa) VH: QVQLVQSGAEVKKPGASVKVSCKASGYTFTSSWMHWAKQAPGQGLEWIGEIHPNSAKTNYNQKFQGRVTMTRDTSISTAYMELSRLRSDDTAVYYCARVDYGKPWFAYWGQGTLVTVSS VL: QIVLTQSPGTLSLSPGERATLSCRASSSVSSSYLHWYQQKPGQAPRLWIYSTSSRATGIPDRFSGSGSGTDFTLTISRLEPEDFATYYCQQFQSSPLTFGQGTKLEIK	0.0162 µg/mL
humanized anti-IL-36R antibody 900534 (antibody, V domains shown, IgG1 (vector with L234A, L235A) and human kappa) VH: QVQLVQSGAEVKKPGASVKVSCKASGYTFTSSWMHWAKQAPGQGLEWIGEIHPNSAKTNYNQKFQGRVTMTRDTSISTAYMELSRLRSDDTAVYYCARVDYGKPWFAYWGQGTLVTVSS VL: QIVLTQSPGTLSLSPGERATLSCRASSSVSSSYLHWYQQKPGQAPRLLIYSTSSRATGIPDRFSGSGSGTDFTLTISRLEPEDFATYYCQQFQSSPLTFGQGTKLEIK	0.0176 µg/mL
anti-IL-36R chimeric antibody 900497 (antibody, V domains shown, Human-mouse chimera: human IgG1 heavy constant region with L234A and L235A (Eu numbering), human kappa light constant region) VH: QVQLQQTGSVLVRPGTSVKLSCKASGYTFTSSWMHWAKQRPGQGLEWIGEIHPNSAKTNYNEKFKGKATLTVDTFSSTAYVDLSSLASEDSAVYYCARVDYGKPWFAYWGQGTLVTVSA VL: QIVLTQSPTIMSASPGERVTMTCSASSSVSSSYLHWYQQKPGSSPKLWIYSTSNLASGVPARFSGSGSGTSYSLTINSMEAEDAATYYCQQFQSSPLTFGAGTKLGLK	0.0198 µg/mL

Entry source: patent EP4289863A9
